Listed molecules paired with reported pIC50
target: active human Akt1 (Homo sapiens, UniProt P31749); construct: Active human recombinant Akt1 (full-length) purified from Sf9 insect cells; assay: Akt1 Phosphorylation Assay (phosphocellulose filter-binding, 33P-Crosstide); conditions: active human recombinant Akt1 (full-length) 10 nM; 12.5 μM Crosstide; 20 μM ATP; 30 minutes at room temperature
Sequence (P31749 whole entry): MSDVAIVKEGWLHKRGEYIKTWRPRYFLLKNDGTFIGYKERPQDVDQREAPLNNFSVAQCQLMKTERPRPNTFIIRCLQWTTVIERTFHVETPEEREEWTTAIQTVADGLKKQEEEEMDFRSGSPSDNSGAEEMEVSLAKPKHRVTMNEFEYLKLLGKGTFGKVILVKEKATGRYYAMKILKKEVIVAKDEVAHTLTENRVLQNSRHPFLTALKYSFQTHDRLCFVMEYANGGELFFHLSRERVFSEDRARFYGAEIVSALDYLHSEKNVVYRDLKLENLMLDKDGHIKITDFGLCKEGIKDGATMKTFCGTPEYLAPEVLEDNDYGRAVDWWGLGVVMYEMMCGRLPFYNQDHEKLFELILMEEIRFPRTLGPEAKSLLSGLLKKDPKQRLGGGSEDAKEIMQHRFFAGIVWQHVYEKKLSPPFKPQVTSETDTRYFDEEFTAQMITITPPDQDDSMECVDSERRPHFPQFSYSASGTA
pIC50: −log10 of the molar value. Where a name gives a salt, the structure may show the parent alone.

// known answers, use as guide
{"columns": ["molecule", "pIC50"],
 "data": [
  ["O=[N+]([O-])c1ccc(C(O)CCNCCNS(=O)(=O)c2cc(-c3ccccc3)cc3cnccc23)cc1 (stereo not shown) [Example 73, dihydrochloride salt]", "≥ 5.70"],
  ["CC1CN(c2cc(Cl)ccc2CCCNCCNS(=O)(=O)c2cc(-c3ccccc3)cc3cnccc23)CCN1 (stereo not shown)", "≥ 5.70"],
  ["Nc1ccc(CCCNCCNS(=O)(=O)c2cc(-c3ccccc3)cc3cnccc23)cc1 [Example 72, dihydrochloride salt]", "≥ 5.70"]
]}

Find the recorded pIC50 belonging to N#Cc1ccc(C(O)C(O)CNCCNS(=O)(=O)c2cc(-c3ccccc3)cc3cnccc23)cc1 (stereo not shown) [Example 112, dihydrochloride salt] and report it. ≥ 5.70
